Field: protein stability index. Provide a value for each of the variants that follow.
B1: ZNF232 (parent)
chain: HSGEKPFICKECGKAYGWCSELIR

Variants of: B1
Experiment: protein stability index of a GFP-peptide fusion (GPS, HEK-293T) (PSI 1-6); higher = more stable;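 note: lentivirally expressed fusions sorted by FACS into six bins by GFP to DsRed ratio, PSI derived from sequencing read proportions per bin multiplied by bin number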
Condition: c terminus: a fixed tail appended
Answers are plain numbers.

HSGEKPFISKECGKAYGWCSELIR    1.92
HSGEKPFICKECGKAYGWCSEAIR    2.24

Please report protein stability index for every entry that follows.
1. HSGEKPFICKEFGKAYGWCSELIR
2. HSGEKPFDCKECGKAYGWCSELIR
3. HSGEKPFYCKECGKAYGWCSELIR

Resp:
1. 2.38
2. 2.07
3. 1.74

# batch: return protein stability index for each of the 2 variants below
1. HSGEKPFICKECGKEYGWCSELIR
2. HSGLKPFICKECGKAYGWCSELIR

Resp:
1.81
2.76

Quick batch: protein stability index for everything below.
1. HSGEKPFICKECGKAYGWCSELKR
2. HSWEKPFICKECGKAYGWCSELIR
3. HSGHKPFICKECGKAYGWCSELIR
4. HSGEKPFICKECGKAQGWCSELIR
5. HAGEKPFICKECGKAYGWCSELIR
6. HSGEKPFICKECGKAYGWCVELIR
7. HSGEKPFTCKECGKAYGWCSELIR
8. HSGEKPFICKECGKVYGWCSELIR

Resp:
[2.45, 1.86, 2.17, 2.33, 1.7, 2, 1.23, 2.01]
